- experiment summary: CREB reporter modulators without forskolin, primary screen, cell-based, PC12, CRE-LacZ reporter, unstimulated (AID 1145)
- condition info: no forskolin, luminescence, 4.5 h, higher = more signal, called active from +8 up or from −8 down
Calls of active or inactive are those of the source.
recorded endpoint: z-score

Guide cases for z-score, answers given:
O=C1O[C@H](c2ccccc2)[C@H](c2ccccc2)N2[C@H]1[C@@H](C(=O)O)[C@]1(C(=O)Nc3ccc(C#CC4=CCCCC4)cc31)[C@H]2c1ccc(OCCO)cc1 ... 0.0816 (inactive)
CC(C)(C)OC(=O)CC[C@@]1(C(=O)NCCN2CCOCC2)N=C(c2ccc(OCCCO)cc2)O[C@@H]1c1ccccc1 ... -1.33 (inactive)
C=C(COC)C(=O)CC[C@H](OC(C)=O)c1cccc(OCCO)c1 ... 0.942 (inactive)

Now for another entry.
Need z-score, item CC(C)c1ccc(NN2C(C(O)c3ccc(N(C)C)cc3)C=CC3C(=O)N(c4ccccc4)C(=O)C32)cc1 (centres undefined)
-0.133 (inactive)
